Task for the reader: assign each of the following compounds its reported Kd.
# measuredOn: UniProt Q9Y5A9
# Sequence (Q9Y5A9 whole entry): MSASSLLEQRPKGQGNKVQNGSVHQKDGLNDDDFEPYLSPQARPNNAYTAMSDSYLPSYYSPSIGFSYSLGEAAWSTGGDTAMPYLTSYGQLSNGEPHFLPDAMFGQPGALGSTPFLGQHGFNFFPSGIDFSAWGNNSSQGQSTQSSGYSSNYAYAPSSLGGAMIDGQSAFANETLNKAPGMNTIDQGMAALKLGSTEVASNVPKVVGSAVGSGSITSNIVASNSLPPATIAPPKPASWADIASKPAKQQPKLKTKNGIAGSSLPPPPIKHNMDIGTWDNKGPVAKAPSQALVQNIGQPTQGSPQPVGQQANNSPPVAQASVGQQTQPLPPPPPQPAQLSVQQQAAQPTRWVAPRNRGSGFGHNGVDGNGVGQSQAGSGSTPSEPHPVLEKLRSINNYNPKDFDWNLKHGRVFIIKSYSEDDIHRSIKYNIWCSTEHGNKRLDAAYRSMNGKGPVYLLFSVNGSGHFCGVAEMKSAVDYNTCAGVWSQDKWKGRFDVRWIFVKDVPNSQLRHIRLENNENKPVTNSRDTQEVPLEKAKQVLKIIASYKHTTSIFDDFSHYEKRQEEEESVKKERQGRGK
# assay: DNA-fluorescence polarization (FP) competition assay, DF2
# Format: binding
The reply should contain only the number, in µM.

Give Kd for "O=C(O)c1ccc(-c2cc3c(=O)[nH]c(=S)[nH]c3s2)cc1"
1.9

Give Kd for "CCOC(=O)c1sc2[nH]c(=S)[nH]c(=O)c2c1C"
4.4

Give Kd for "Cc1c(C(=O)NCc2cccnc2)sc2[nH]c(=S)[nH]c(=O)c12"
1.3

Give Kd for "Cc1c(C(=O)NCCCC(=O)O)sc2[nH]c(=S)[nH]c(=O)c12"
1.3

Give Kd for "COC(=O)c1ccc(-c2csc3[nH]c(=S)[nH]c(=O)c23)cc1"
1.2

Give Kd for "O=c1[nH]c(=S)[nH]c2sccc12"
3.8

Give Kd for "O=c1[nH]c(=S)[nH]c2scc(-c3ccc(O)cc3)c12"
1.3

Give Kd for "Cc1c(-c2ccc([N+](=O)[O-])cc2)sc2[nH]c(=S)[nH]c(=O)c12"
17

Give Kd for "Cc1c(C(=O)NCc2cccc(C(=O)O)c2)sc2[nH]c(=S)[nH]c(=O)c12"
2.5

Give Kd for "COc1ccc(-c2cc3c(=O)[nH]c(=S)[nH]c3s2)cc1"
1.9

Give Kd for "Cc1c(-c2ccc(N)cc2)sc2[nH]c(=S)[nH]c(=O)c12"
1.9

Entry source: paper PMC12371494
